Tested on: NOMO1
Assay: AUC of viability dose-response curve (% viability x log10 dose units); higher = less sensitive
Details: HPLM + 10% dialyzed FBS; 48 h
Recorded AUC of viability dose-response curve values for a group of compounds are listed next.
Output spec: single numeric token, no unit.

Would you please look over these solved cases?
compound="CC1=C(CC/C(C)=C/CCC2=CCC(C3=CC(=O)OC3O)OC2O)C(C)(C)CCC1 (stereo not given)" measurednumber=434
compound=CC1(C)CC(O)CC(C)(C)N1[O] measurednumber=452
compound=N#CC(=C(/N)Sc1ccccc1N)/C(C#N)=C(\N)Sc1ccccc1N measurednumber=436

Entry "Cc1cc(O)c2c(c1)C(=O)c1cc(O)cc(O)c1C2=O" : reported AUC of viability dose-response curve = ?
462

Entry "CCN(CC)CCN1C(=O)\C(=N/C2=CC=CC=C12)CC3=CC=C(OC)C=C3" : reported AUC of viability dose-response curve = ?
472

* * *

System: NOMO1
Assay: cell viability relative to DMSO control; higher = less cytotoxic
Details: RPMI 5 mM glucose + 10% dialyzed FBS; 48 h; 15.4 µM
readoutType: cell viability (%)
Answer in %, number only, no unit symbol.

Would you please look over these solved cases?
substancesmiles=CC[C@@]1(O)C[C@H](O[C@H]2C[C@H](N(C)C)[C@H](O[C@H]3C[C@H](O)[C@H](O[C@H]4CCC(=O)[C@H](C)O4)[C@H](C)O3)[C@H](C)O2)c2c(cc3c(c2O)C(=O)c2c(O)cccc2C3=O)[C@H]1C(=O)OC measurednumber=75.3
substancesmiles=CN(C)C[C@@H]1CC[N]2C=C(C3=C2C=CC=C3)C/4=C(/C(=O)NC4=O)C5=C[N](CCO1)C6=C5C=CC=C6 measurednumber=77.7
substancesmiles=CN[S+](=O)([O-])CCc1ccc2[nH]cc(C3CCN(C)CC3)c2c1 measurednumber=85.3
substancesmiles=C#C[C@]1(O)CC[C@H]2[C@@H]3CCc4cc(OC)ccc4[C@H]3CC[C@@]21C measurednumber=103
substancesmiles=N\C1=N\C2=C(N=C[N]2COC(CO)CO)C(=O)N1 measurednumber=95.5
substancesmiles=CNCC(O)C(O)C(O)C(O)CO.O=C(O)c1ccc(-c2cc3cccnc3c(-c3ccc4nonc4c3)n2)cc1 measurednumber=118
substancesmiles=CC1(C)CC(O)CC(C)(C)N1[O] measurednumber=123

Entry "Cc1cc(O)c2c(c1)C(=O)c1cc(O)cc(O)c1C2=O" : reported cell viability = ?
90.3

* * *

Recorded cell viability values for a group of molecules are listed next.
Test system: NOMO1
Assay: cell viability relative to DMSO control; higher = less cytotoxic
Settings: RPMI 5 mM glucose + 10% dialyzed FBS; 48 h; 0.00234 µM
Answer in %, number only, no unit symbol.

Would you please look over these solved cases?
molecule=CN(C)C[C@@H]1CC[N]2C=C(C3=C2C=CC=C3)C/4=C(/C(=O)NC4=O)C5=C[N](CCO1)C6=C5C=CC=C6 readouttype="cell viability" measurednumber=84.2
molecule=CC(C)c1ccccc1Cc1cc(C(=O)Nc2ccc([S+](=O)([O-])c3ccccc3C(C)(C)C)cc2)c(O)c(O)c1O readouttype="cell viability" measurednumber=117
molecule=C[C@@H]1C[C@H]2[C@@H]3CC\C4=C\C(=O)\C=C/[C@]4(C)[C@@]3(Cl)[C@@H](O)C[C@]2(C)[C@@]1(OC(=O)C5=CC=CO5)C(=O)CCl readouttype="cell viability" measurednumber=112
molecule="CO[C@@H]1C(N(C)C(=O)c2ccccc2)C[C@H]2O[C@]1(C)n1c3ccccc3c3c4c(c5c6ccccc6n2c5c31)C(=O)NC4=O (stereo partly specified)" readouttype="cell viability" measurednumber=78.8
molecule=CCOC1=CC(=CC=C1C/2=N/[C@@](C)(C3=CC=C(Cl)C=C3)[C@](C)(N2C(=O)N4CCN(CC4)CC(=O)N5CCOCC5)C6=CC=C(Cl)C=C6)C(C)(C)C readouttype="cell viability" measurednumber=113

We next turn to a different molecule, shown below.
Checklist item: cell viability tested on NOMO1, entry "Cc1[nH]c(/C=C2\C(=O)Nc3ccc([S+](=O)([O-])Cc4c(Cl)cccc4Cl)cc32)c(C)c1C(=O)N1CCC[C@@H]1CN1CCCC1" , value?
89.8

* * *

System: SEM cells
Experiment: cell viability relative to DMSO control; higher = less cytotoxic
Settings: RPMI 5 mM glucose + 10% dialyzed FBS; 48 h; 0.00702 µM
readoutType: cell viability

Would you please look over these solved cases?
substancesmiles=CN[C@@H]1C[C@H]2O[C@@](C)([C@@H]1OC)n1c3ccccc3c3c4c(c5c6ccccc6n2c5c31)C(=O)N[C@H]4O assayedtarget="SEM cells" readouttype="cell viability" result=76.6%
substancesmiles=COc1cc(N[S+](=O)([O-])c2ccc(N)cc2)nc(OC)n1 assayedtarget="SEM cells" readouttype="cell viability" result=99.7%
substancesmiles=O=C1N\2CCC3=C([NH]C4=C3C=CC=C4)C2=N/C5=CC=CC=C15 assayedtarget="SEM cells" readouttype="cell viability" result=142%
substancesmiles=Cc1ncc([N+](=O)[O-])n1CCO assayedtarget="SEM cells" readouttype="cell viability" result=123%
substancesmiles=CC(C)C[C@H](NC(=O)[C@H](Cc1ccccc1)NC(=O)c1cnccn1)B(O)O assayedtarget="SEM cells" readouttype="cell viability" result=84.5%

Entry "O=C(NNC(=O)c1ccc(CN[S+](=O)([O-])c2ccc(F)c(Cl)c2)cc1)c1ccccc1" : reported cell viability = ?
89.6%

Entry "OCCCNc1cc(-c2ccnc(Nc3cccc(Cl)c3)n2)ccn1" : reported cell viability = ?
114%

Entry "COC1=CC2=C(C=C1OC)[C@H]3[C@@H](CO2)OC4=C(C=CC5=C4\C=C/C(C)(C)O5)C3=O" : reported cell viability = ?
92.4%

Entry "CC(=O)[C@H]1CC[C@H]2[C@@H]3CCC4=CC(=O)CC[C@]4(C)[C@H]3CC[C@]12C" : reported cell viability = ?
103%

* * *

Tested on: P12-Ichikawa
Experiment: cell viability relative to DMSO control; higher = less cytotoxic
Conditions: HPLM + 10% dialyzed FBS; 48 h; 15.4 µM
Hi! Could you tag entries with cell viability below 40% as Met, and those at or above as Not met? Much appreciated.

Record excerpt, results attached:
compound=CCNC(=O)[C@H]1O[C@@H](n2cnc3c(N)nc(NCCc4ccc(CCC(=O)O)cc4)nc32)[C@H](O)[C@@H]1O classname="Not met"
compound=CC(C)[C@H](CO)Nc1nc(Nc2cccc(Cl)c2)c2ncn(C(C)C)c2n1 classname=Met

cell viability strictly < 40% for this compound? "COc1cc(N[S+](=O)([O-])c2ccc(N)cc2)nc(OC)n1"
Not met

cell viability strictly < 40% for this compound? "CN(C)CCN(Cc1ccc(Cl)cc1)c1ccccn1.Cl"
Not met

cell viability strictly < 40% for this compound? "C#Cc1cccc(Nc2ncnc3cc(OC)c(OCCCCCCC(=O)NO)cc23)c1"
Met

cell viability strictly < 40% for this compound? "Nc1nc(OCc2ccccc2)c2nc[nH]c2n1"
Not met

cell viability strictly < 40% for this compound? C[S+]([O-])c1ccc(-c2nc(-c3ccc(F)cc3)c(-c3ccncc3)[nH]2)cc1 (configuration not stated)
Met

cell viability strictly < 40% for this compound? "C=CCn1c(=O)c2cnc(Nc3ccc(N4CCN(C)CC4)cc3)nc2n1-c1cccc(C(C)(C)O)n1"
Met

cell viability strictly < 40% for this compound? "O=C1N\2CCC3=C([NH]C4=C3C=CC=C4)C2=N/C5=CC=CC=C15"
Not met

cell viability strictly < 40% for this compound? "O=C(CCCCCCC(=O)Nc1ccccc1)NO"
Met

cell viability strictly < 40% for this compound? "CO[C@H]1C[C@@H]2CC[C@@H](C)[C@@](O)(O2)C(=O)C(=O)N2CCCC[C@H]2C(=O)O[C@H]([C@H](C)C[C@@H]2CC[C@@H](OCCO)[C@H](OC)C2)CC(=O)[C@H](C)/C=C(/C)[C@@H](O)[C@@H](OC)C(=O)[C@H](C)C[C@H](C)\C=C/C=C\C=C/1C"
Not met

cell viability strictly < 40% for this compound? "COC[C@H]1OC(=O)C2=COC3=C2[C@@]1(C)\C4=C(\[C@@H]5CC[C@H](O)[C@@]5(C)C[C@H]4OC(C)=O)C3=O"
Not met

cell viability strictly < 40% for this compound? "CCN(CC)CCN1C(=O)\C(=N/C2=CC=CC=C12)CC3=CC=C(OC)C=C3"
Not met

cell viability strictly < 40% for this compound? "CCCCN(CCCC)C(=O)CN1C[C@H](c2ccc3c(c2)OCO3)[C@@H](C(=O)O)[C@@H]1c1ccc(OC)cc1"
Not met

cell viability strictly < 40% for this compound? "Cc1ccc(-c2ncn(-c3ccc(Nc4nccc(-c5cccc(N6CCOCC6)c5)n4)cc3)n2)cn1"
Met

cell viability strictly < 40% for this compound? "O=[N+]([O-])c1cnc(Sc2nnc(O)n2-c2ccc3c(c2)OCCO3)s1"
Not met

cell viability strictly < 40% for this compound? "N\C1=N\C2=C(N=C[N]2COC(CO)CO)C(=O)N1"
Not met

Values from the supplement of paper PMC11451515
